Biological target: Phosphatidylinositol 4,5-bisphosphate 3-kinase catalytic subunit alpha isoform (Homo sapiens)
Sequence (P42336 whole entry, canonical isoform): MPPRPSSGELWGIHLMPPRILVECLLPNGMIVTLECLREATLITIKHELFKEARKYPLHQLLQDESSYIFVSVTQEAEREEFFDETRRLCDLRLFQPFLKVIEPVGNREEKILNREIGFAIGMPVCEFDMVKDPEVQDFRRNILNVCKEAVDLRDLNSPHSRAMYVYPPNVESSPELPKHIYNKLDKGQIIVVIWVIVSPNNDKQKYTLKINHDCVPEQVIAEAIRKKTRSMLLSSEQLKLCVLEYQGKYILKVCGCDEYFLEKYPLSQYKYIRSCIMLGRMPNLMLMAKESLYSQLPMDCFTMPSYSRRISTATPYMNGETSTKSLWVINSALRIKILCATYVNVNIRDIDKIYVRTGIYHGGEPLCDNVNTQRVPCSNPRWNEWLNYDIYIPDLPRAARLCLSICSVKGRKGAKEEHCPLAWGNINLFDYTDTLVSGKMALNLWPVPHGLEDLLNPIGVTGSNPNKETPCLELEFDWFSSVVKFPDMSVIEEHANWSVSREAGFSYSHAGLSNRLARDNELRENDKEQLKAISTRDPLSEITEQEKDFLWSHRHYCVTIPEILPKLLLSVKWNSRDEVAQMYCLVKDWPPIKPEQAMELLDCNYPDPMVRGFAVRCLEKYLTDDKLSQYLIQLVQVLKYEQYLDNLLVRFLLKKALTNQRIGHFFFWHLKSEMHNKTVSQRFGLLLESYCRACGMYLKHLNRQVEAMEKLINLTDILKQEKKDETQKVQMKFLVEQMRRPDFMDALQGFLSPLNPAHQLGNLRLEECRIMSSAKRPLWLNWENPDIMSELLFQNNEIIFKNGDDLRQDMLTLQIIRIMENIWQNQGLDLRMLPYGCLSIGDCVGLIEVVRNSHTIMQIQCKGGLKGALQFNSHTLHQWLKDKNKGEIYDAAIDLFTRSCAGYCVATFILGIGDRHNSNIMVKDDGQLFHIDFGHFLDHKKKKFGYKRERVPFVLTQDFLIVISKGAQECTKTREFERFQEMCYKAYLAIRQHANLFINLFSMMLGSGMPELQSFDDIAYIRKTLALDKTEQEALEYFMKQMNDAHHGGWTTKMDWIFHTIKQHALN
Test: Inhibition of PI3Kalpha (unknown origin) using lipid substrate by Kinase-Glo plus luminescence kinase assay or and ADP-Glo Plus luminescence kinase assay
pIC50: −log10 of the molar value.
quantity kind: pIC50

Worked examples follow.
CCNC(=O)Nc1ccc(-c2nc3c(c(N4CCOC[C@@H]4C)n2)CCN(C2COC2)C3)cc1; 5.38
CCNC(=O)Nc1ccc(-c2cc(N3CCOC[C@@H]3C)c3nc(C)n(CC)c3n2)cc1; < 5.00

Next, consider the following compound.
Exercise: Query: pIC50; subject: "CCCn1cnc2c(N3CCOC[C@@H]3C)cc(-c3ccc(NC(=O)NCC)cc3)nc21"
Solution: < 5.00
